Where do the numbers come from? From the supplement of paper PMC6992640.

Examples of compounds with documented cell viability of combination follow.
- Tested on: HCI01 (cells of a triple-negative basal-like breast cancer xenograft)
- assay-summary: cell viability of combination (% of vehicle); higher = less cytotoxic
- stated-conditions: 1 µM; 72 h; partner dose: 10 nM
quantity-name: cell viability of combination

• Nc1c(CC(=O)[O-])cccc1C(=O)c1ccccc1.O.[Na+] [Amfenac Sodium Monohydrate] + CN(C)C/C=C/C(=O)Nc1cc2c(Nc3ccc(F)c(Cl)c3)ncnc2cc1O[C@H]1CCOC1 = 54.7
• CCc1cnn2c(NCc3ccc[n+]([O-])c3)cc(N3CCCCC3CCO)nc12 (stereo unspecified) + CN(C)C/C=C/C(=O)Nc1cc2c(Nc3ccc(F)c(Cl)c3)ncnc2cc1O[C@H]1CCOC1 = 25.6
• COc1cc2ncnc(Nc3ccc(F)c(Cl)c3)c2cc1NC(=O)C=CCN1CCCCC1 + CN(C)C/C=C/C(=O)Nc1cc2c(Nc3ccc(F)c(Cl)c3)ncnc2cc1O[C@H]1CCOC1 = 45.1
• [O-]n1ccccc1=S.[O-]n1ccccc1=S.[Zn+2] [Zinc Pyrithione] + CN(C)C/C=C/C(=O)Nc1cc2c(Nc3ccc(F)c(Cl)c3)ncnc2cc1O[C@H]1CCOC1 = 47.4
• O=C(NN=Cc1ccc([N+](=O)[O-])o1)c1ccc(O)cc1 [Nifuroxazide] + CN(C)C/C=C/C(=O)Nc1cc2c(Nc3ccc(F)c(Cl)c3)ncnc2cc1O[C@H]1CCOC1 = 50.8
• N.N.O=C([O-])C1(C(=O)[O-])CCC1.[Pt+2] [Carboplatin] + CN(C)C/C=C/C(=O)Nc1cc2c(Nc3ccc(F)c(Cl)c3)ncnc2cc1O[C@H]1CCOC1 = 60.1
• CC1=CC(=O)c2ccccc2C1=O [Menadione] + CN(C)C/C=C/C(=O)Nc1cc2c(Nc3ccc(F)c(Cl)c3)ncnc2cc1O[C@H]1CCOC1 = 55.8
• CCCCc1oc2ccc(NS(C)(=O)=O)cc2c1C(=O)c1ccc(OCCCN(CCCC)CCCC)cc1 [Dronedarone] + CN(C)C/C=C/C(=O)Nc1cc2c(Nc3ccc(F)c(Cl)c3)ncnc2cc1O[C@H]1CCOC1 = 48.1
• C=C1C(=CC=C2CCCC3(C)C2CCC3C(C)C=CC(C)C(C)C)CC(O)CC1O (stereo unspecified) [Doxercalciferol] + CN(C)C/C=C/C(=O)Nc1cc2c(Nc3ccc(F)c(Cl)c3)ncnc2cc1O[C@H]1CCOC1 = 44.8
• CN(C)CC=CC(=O)Nc1cc2c(Nc3ccc(F)c(Cl)c3)ncnc2cc1OC1CCOC1 (stereo unspecified) [Afatinib (BIBW2992)] + CN(C)C/C=C/C(=O)Nc1cc2c(Nc3ccc(F)c(Cl)c3)ncnc2cc1O[C@H]1CCOC1 = 44.6
• CC[C@H](C)[C@H]1O[C@]2(CC[C@@H]1C)C[C@@H]1C[C@@H](C/C=C(\C)[C@@H](O[C@H]3C[C@H](OC)[C@@H](O[C@H]4C[C@H](OC)[C@@H](O)[C@H](C)O4)[C@H](C)O3)[C@@H](C)/C=C/C=C3\CO[C@@H]4[C@H](O)C(C)=C[C@@H](C(=O)O1)[C@]34O)O2 [Ivermectin] + CN(C)C/C=C/C(=O)Nc1cc2c(Nc3ccc(F)c(Cl)c3)ncnc2cc1O[C@H]1CCOC1 = 46

* * *

- Test system: HCI01
- assay-summary: cell viability of combination (% of vehicle); higher = less cytotoxic
- stated-conditions: 1 µM; 72 h; partner dose: 10 nM
Reported cell viability of combination values are given for each entry in this list.
quantity-name: cell viability of combination

• COc1cccc2c1C(=O)c1c(O)c3c(c(O)c1C2=O)CC(O)(C(=O)CO)CC3OC1CC(N)C(O)C(C)O1.Cl (centres undefined) [Doxorubicin (Adriamycin) HCl] + CN(C)C/C=C/C(=O)Nc1cc2c(Nc3ccc(F)c(Cl)c3)ncnc2cc1O[C@H]1CCOC1 = 49.5
• O=C1C=CC=CC1=C1NC(=C2C=CC=CC2=O)N(c2ccc(C(=O)O)cc2)N1 [Deferasirox] + CN(C)C/C=C/C(=O)Nc1cc2c(Nc3ccc(F)c(Cl)c3)ncnc2cc1O[C@H]1CCOC1 = 43.2
• O=C(C=Cn1cnc(-c2cc(C(F)(F)F)cc(C(F)(F)F)c2)n1)NNc1cnccn1 + CN(C)C/C=C/C(=O)Nc1cc2c(Nc3ccc(F)c(Cl)c3)ncnc2cc1O[C@H]1CCOC1 = 39.3
• Cn1cnc2c(F)c(Nc3ccc(Br)cc3F)c(C(=O)NOCCO)cc21 + CN(C)C/C=C/C(=O)Nc1cc2c(Nc3ccc(F)c(Cl)c3)ncnc2cc1O[C@H]1CCOC1 = 40.5
